binders and their reported log10 Kd
- system.under.test: T1, Recombinant TNFα containing an N-terminal 13-aa ybbR tag (human, UniProt P01375 77-233, biotin at the ybbR tag in the ELISA assays)
- T1 construct: Expressed in E. coli; Same construct used unlabelled (FA) and biotinylated on NeutrAvidin (ELISA); also called tumor necrosis factor-alpha; human TNFα; not shown: N-terminal 13-aa ybbR tag
- test.summary: FA, FITC-peptide + TNFα titration
Positions of bridges follow the written chain, without caps; N, C: chain ends. Non-standard residues stand in square brackets, D forms with d. Primed or numbered codes have the meaning given here. No end group written: not given here. *: point of attachment. FITC(3) = fluorescein isothiocyanate (N6-fluorescein-thiocarbamoyl on Lys); FITC = O=C1OC2(c3ccc(O)cc3Oc3cc(O)ccc32)c2ccc(NC(=S)*)cc21; FITC″ = Lys(FITC) = N6-fluorescein-thiocarbamoyl-L-lysine; trimesoyl″ = benzene-1,3,5-tricarbonyl scaffold; FITC′ = fluorescein isothiocyanate, on Lys NZ; trimesoyl = benzene-1,3,5-tricarbonyl; Phg = N[C@H](C(=O)O)c1ccccc1; Nle = CCCC[C@H](N)C(=O)O; Dap = NC[C@H](N)C(=O)O
quantity.measured: log10 Kd (log10 of the value in µM)

binder	quantity.measured	data.value
[Phg]Y[dA]KY[dF]G[dA]H[Dap]NNNK(FITC(3))-NH2 (linker N-4-10 via trimesoyl″) [Anticachexin C1 D-Lys8 → D-Ala, NNNK(FITC)-tagged]	log10 Kd	0.77
[Phg]Y[dA]KY[dA]G[dK]H[Dap]NNNK(FITC(3))-NH2 (linker N-4-10 via trimesoyl″) [Anticachexin C1 D-Phe6 → D-Ala, NNNK(FITC)-tagged]	log10 Kd	0.53
NY[dA]KY[dF]G[dK]H[Dap]K(FITC″)-NH2 (linker N-4-10 via trimesoyl) [C1-9]	log10 Kd	0.90
VY[dA]KY[dF]G[dK]H[Dap]K(FITC)-NH2 (linker (positions not given here) via trimesoyl″; not fully specified (bridges)) [C1-4]	log10 Kd	0.23
SY[dA]KY[dF]G[dK]H[Dap]K(FITC)-NH2 (linker N-4-10 via trimesoyl″) [C1-6]	log10 Kd	0.79
[Nle]Y[dS]KY[dF]G[dK]H[Dap]K(FITC′)-NH2 (bridge N-4-10 via trimesoyl″; not fully specified (N-terminus)) [C1-11]	log10 Kd	0.18
[Phg]A[dA]KY[dF]G[dK]H[Dap]NNNK(FITC′)-NH2 (bridge (positions not given here) via trimesoyl″; not fully specified (N-terminus, bridges); also: feature: K4 labeled with FITC) [Anticachexin C1 Tyr2 → Ala, NNNK(FITC)-tagged]	log10 Kd	1.11
[Phg]Y[dA]KY[dF]G[dK]H[Dap]K(FITC′)-NH2 (linker (positions not given here) via trimesoyl″; not fully specified (N-terminus, bridges)) [Anticachexin C1, Lys(FITC)-labelled (Table 2)]	log10 Kd	0.15
[Nle]YSKY[dF]G[dK]H[Dap]K(FITC′)-NH2 (linker (positions not given here) via trimesoyl″; not fully specified (N-terminus, bridges), L-Ser at position 3) [C1-19]	log10 Kd	0.83
AY[dA]KY[dF]G[dK]H[Dap]K(FITC′)-NH2 (linker (positions not given here) via trimesoyl″; not fully specified (N-terminus, bridges)) [C1-2]	log10 Kd	0.26
GY[dA]KY[dF]G[dK]H[Dap]K(FITC′)-NH2 (bridge N-4-10 via trimesoyl″; not fully specified (N-terminus)) [C1-1]	log10 Kd	0.85
[Nle]Y[dS]KW[dH]V[dK]H[Dap]K(FITC)-NH2 (linker N-4-10 via trimesoyl″) [C1-46]	log10 Kd	-0.06
[Phg]Y[dA]KY[dF]A[dK]H[Dap]NNNK(FITC(3))-NH2 (linker N-4-10 via trimesoyl″) [Anticachexin C1 Gly7 → Ala, NNNK(FITC)-tagged]	log10 Kd	0.08
DY[dA]KY[dF]G[dK]H[Dap]K(FITC″)-NH2 (linker N-4-10 via trimesoyl) [C1-8]	log10 Kd	0.85
VY[dT]KY[dF]G[dK]H[Dap]K(FITC′)-NH2 (linker (positions not given here) via trimesoyl″; not fully specified (N-terminus, bridges)) [C1-14]	log10 Kd	0.46
[Phg]Y[dA]KA[dF]G[dK]H[Dap]NNNK(FITC′)-NH2 (bridge (positions not given here) via trimesoyl″; not fully specified (N-terminus, bridges); also: feature: K4 labeled with FITC) [Anticachexin C1 Tyr5 → Ala, NNNK(FITC)-tagged]	log10 Kd	1.04
[Nle]Y[dS][Dap]Y[dF]G[dK]H[Dap]K(FITC′)-NH2 (linker (positions not given here) via trimesoyl″; not fully specified (N-terminus, bridges)) [C1-21]	log10 Kd	0.77
